These data points were gathered from paper PMC9482650.

# measured_target: IL16_1, Q14005
# Sequence (Q14005 210-306): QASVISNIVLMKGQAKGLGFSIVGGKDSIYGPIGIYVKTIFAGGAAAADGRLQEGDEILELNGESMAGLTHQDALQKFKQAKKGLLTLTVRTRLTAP
# protocol: holdup assay
# Set-up: key: below the threshold = too weak to quantify, mostly under pKd 3.1 to 4
# run_parameters: plain residues with an end cap or a label only (N-terminal biotin on a linker: ttds)
value_type: pKd

binder | pKd
RSLEEEESQL [GRASP, Q7Z6J2] | below the threshold
SRPQRTQTQV [HPV67-E6, A4U7F2] | below the threshold
SVWLRKETRV [CYSLTR2, Q9NS75] | 3.92
QSARYRDTEL [TJP2, Q9UDY2] | below the threshold
IDNDTESTAL [ARHGAP17, Q68EM7] | below the threshold
SSRTRRETQL [HPV16-E6, P03126] | below the threshold
STLTIFETAL [ABCC4, O15439] | 3.5
PKTPPTDTSV [KIR3DL3, Q8N743] | below the threshold
VLRLQSETSV [VANGL1, Q8TAA9] | 3.7
IYVPEAQTRL [DLGAP4, Q9Y2H0] | below the threshold

Give pKd for each of the items listed below.
1. ERKLSSESQV [LRP4, O75096]
2. TVASEKESVM [SLC1A5, Q15758]
3. GQDSREETQL [KCNT2, Q6UVM3]

Output:
[3.59, "below the threshold", "below the threshold"]
